The entries below are paired with their reported ΔTm at 10 µM.
biological target: LmxCLK1 (Leishmania mexicana, UniProt E9AMP2); assay: biochemical; type: binding; conditions: DSF, 10 µM compound, 2 µM LmxCLK1, Run 2; read-out: ΔTm Run 2
Counter-ions that a name gives are not always drawn.
Please give a number only; it is taken to be in °C.

Example entries and their recorded answers appear below.
[H]/N=C(/N)N/C(=N/[H])NCCc1ccccc1 [Phenformin HCl] ... -0.4
CN1CCN(c2nc(C3=C(c4c[nH]c5ccccc45)C(=O)NC3=O)c3ccccc3n2)CC1 ... 0.9
CCOc1cc2ncc(C#N)c(Nc3ccc(F)c(Cl)c3)c2cc1NC(=O)/C=C/CN(C)C [Pelitinib (EKB-569), Pelitinib] ... 12.5
Cc1cnc(NC(=O)Nc2cc(Br)c(C)cc2OC[C@@H]2CNCCO2)cn1 ... -0.4
Cc1nc(Nc2[nH]nc3c2CN(C(=O)N[C@H](CN(C)C)c2ccccc2)C3(C)C)c2sccc2n1 ... 0.5
CC1=C(C(=O)Nc2cc3cn[nH]c3cc2F)C(c2ccc(C(F)(F)F)cc2)CC(=O)N1 (centres unmarked) [GSK429286A] ... 0.2
COc1cc2nccc(Oc3ccc(NC(=O)Nc4cc(C)on4)c(Cl)c3)c2cc1OC ... 0
C[C@@H](Oc1cc(-n2cnc3ccc(CN4CCN(C)CC4)cc32)sc1C(N)=O)c1ccccc1C(F)(F)F ... 0.1
N#Cc1ccc2[nH]c(O)c(-c3ccc(CN4CCOCC4)cn3)c2c1 ... -0.2
O=C(Nc1ccc(OC(F)(F)F)cc1)c1sccc1NCc1ccnc2ccccc12 ... 0

Query block: Reported ΔTm at 10 µM for N#CC1(c2ccc(NC(=O)c3cccnc3NCc3ccncc3)cc2)CCCC1 : what is it?
Result block: -0.4

Query block: And N#CC[C@H](C1CCCC1)n1cc(-c2ncnc3[nH]ccc23)cn1 ?
Result block: 1.1

Query block: Try this compound next: COCCOc1ccc2c(c1)ncn2-c1ccc2cccc(N3CCC(N)CC3)c2n1
Result block: 0

====

Overview of recorded ΔTm at 10 µM for various compounds
biological target: LmxCLK1 (Leishmania mexicana, UniProt E9AMP2); assay: biochemical; assay type: binding; conditions: DSF, 10 µM compound, 2 µM LmxCLK1, mean of two runs; read-out: ΔTm Average
Give a bare numeral; the unit °C is implied.

Reference set, count: 3
O=C(Nc1c[nH]nc1-c1nc2ccc(CN3CCOCC3)cc2[nH]1)NC1CC1 [AT9283] ... 2.2
COc1ccc(-c2ccc3c(N4CCOCC4)nc(N4C[C@@H](C)O[C@@H](C)C4)nc3n2)cc1CO [KU-0063794] ... 0.1
CCc1cccc(CC)c1NC(=O)N1Cc2n[nH]c(NC(=O)c3ccc(N4CCN(C)CC4)cc3)c2C1 [PHA-680632] ... 0.6

Next compound, ΔTm at 10 µM to be filled in.
Query block: Which ΔTm at 10 µM is listed for CN(C[C@@H]1COCCO1)S(=O)(=O)Nc1ccc2ccc3ncc(-c4cnn(C)c4)cc3c(=O)c2c1 [MK-2461] ?
Result block: 0.1

====

target: LmxCLK1 (Leishmania mexicana); assay: biochemical; assay type: binding; settings: DSF, 10 µM compound, 2 µM LmxCLK1, mean of two runs; read-out: ΔTm Average
Response key: Met means ΔTm at 10 µM >= -0.1 °C; Not met means ΔTm at 10 µM < -0.1 °C.

Query block: Test whether the compound CCC(=O)Nc1cccc(Oc2nc(Nc3ccc(N4CCN(C)CC4)cc3OC)ncc2Cl)c1 records ΔTm at 10 µM of -0.1 °C or higher.
Result block: Met

Query block: Item: Cn1cc(-c2[nH]c3cc(NC(=O)[C@H](N)C4CCCCC4)cc4c3c2C=NNC4=O)cn1
Result block: Met

Query block: Another compound to look at: CN(C)CCOc1ccc(-c2nc(-c3ccncc3)c(-c3ccc4c(c3)CC/C4=N\O)[nH]2)cc1
Result block: Not met

Query block: Also O=C(Nc1ccc(OC(F)(F)F)cc1)c1sccc1NCc1ccnc2ccccc12 ?
Result block: Met

Query block: Same question, CNC(=O)c1cc(COc2nnc(Nc3ccc(Cl)cc3)c3ccoc23)ccn1 this time
Result block: Not met

====

Molecular target: LmxCLK1 (Leishmania mexicana, UniProt E9AMP2)
Sequence (E9AMP2 1-422): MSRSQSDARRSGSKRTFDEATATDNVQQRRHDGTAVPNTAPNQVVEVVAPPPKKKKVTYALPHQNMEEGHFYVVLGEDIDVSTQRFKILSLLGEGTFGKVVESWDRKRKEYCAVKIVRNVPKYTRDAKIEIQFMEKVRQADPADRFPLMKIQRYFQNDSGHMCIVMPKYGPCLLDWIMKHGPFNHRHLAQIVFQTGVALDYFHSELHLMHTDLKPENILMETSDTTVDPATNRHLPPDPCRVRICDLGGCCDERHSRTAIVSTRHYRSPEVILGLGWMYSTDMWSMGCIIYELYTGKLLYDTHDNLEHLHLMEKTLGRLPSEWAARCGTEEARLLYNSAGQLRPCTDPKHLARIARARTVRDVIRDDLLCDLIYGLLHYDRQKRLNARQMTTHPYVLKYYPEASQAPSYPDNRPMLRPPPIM
Assay: biochemical
Format: binding
Conditions: DSF, 10 µM compound, 2 µM LmxCLK1, Run 2
In plain terms, low ΔTm Run 2, meaning strictly below 0 °C, gives Met, and everything else gives Not met.

Observe how each entry below is paired with its result.
Clc1ccc(C2(c3ccc(-c4cn[nH]c4)cc3)CCNCC2)cc1 [AT7867] ... Not met
COC(=O)c1ccc2c(c1)NC(=O)/C2=C(\Nc1ccc(N(C)C(=O)CN2CCN(C)CC2)cc1)c1ccccc1 [Nintedanib (BIBF 1120)] ... Not met

Query block: Would you kindly verify if ΔTm Run 2 of C=CS(=O)(=O)NC1CCN(C(=O)CNc2cc(I)c(Cl)cc2OC)CC1 [K-Ras(G12C) inhibitor 9] is strictly less than 0 °C?
Result block: Met

====

Listed below: ΔTm Average values for each entry.
Biological target: LmxCLK1 (Leishmania mexicana, UniProt E9AMP2)
Sequence (E9AMP2 1-422): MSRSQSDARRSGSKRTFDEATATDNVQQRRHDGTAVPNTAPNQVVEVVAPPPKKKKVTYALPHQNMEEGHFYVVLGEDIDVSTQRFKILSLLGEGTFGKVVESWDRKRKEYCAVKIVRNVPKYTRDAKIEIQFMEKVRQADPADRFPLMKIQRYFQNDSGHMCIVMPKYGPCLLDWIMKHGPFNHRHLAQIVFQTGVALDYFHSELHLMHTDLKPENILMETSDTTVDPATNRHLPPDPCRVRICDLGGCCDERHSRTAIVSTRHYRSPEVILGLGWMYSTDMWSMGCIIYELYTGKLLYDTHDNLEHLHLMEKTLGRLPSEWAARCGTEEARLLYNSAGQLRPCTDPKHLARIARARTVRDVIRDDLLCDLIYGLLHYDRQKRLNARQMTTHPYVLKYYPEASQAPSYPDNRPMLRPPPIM
Assay: biochemical
Type: binding
Settings: DSF, 10 µM compound, 2 µM LmxCLK1, mean of two runs
Provide only the numeric value, understood in °C.

Solved entries:
CCCS(=O)(=O)Nc1ccc(F)c(C(=O)c2c[nH]c3ncc(-c4ccc(Cl)cc4)cc23)c1F ... -0.1
C1=N/C2=N/c3ccc(OCCN4CCCC4)c(c3)COC/C=C/COCc3cccc(c3)C(=C1)N2 [Pacritinib (SB1518)] ... 0.2
O=C(NC(NC(=S)Nc1ccc(F)c([N+](=O)[O-])c1)C(Cl)(Cl)Cl)C(c1ccccc1)c1ccccc1 (stereo not shown) ... -0.3

# next molecule below
Query block: For the molecule shown here, CO[C@H]1C[C@@H]2CC[C@@H](C)[C@@](O)(O2)C(=O)C(=O)N2CCCC[C@H]2C(=O)O[C@H]([C@H](C)C[C@@H]2CC[C@@H](OCCO)[C@H](OC)C2)CC(=O)[C@H](C)/C=C(\C)[C@@H](O)[C@@H](OC)C(=O)[C@H](C)C[C@H](C)/C=C/C=C/C=C/1C [Everolimus (RAD001)] , give the reported ΔTm Average.
Result block: 0.0

====

Here the recorded ΔTm Run 1 is given for each entry.
Molecular target: LmxCLK1 (Leishmania mexicana)
Sequence (E9AMP2 1-422): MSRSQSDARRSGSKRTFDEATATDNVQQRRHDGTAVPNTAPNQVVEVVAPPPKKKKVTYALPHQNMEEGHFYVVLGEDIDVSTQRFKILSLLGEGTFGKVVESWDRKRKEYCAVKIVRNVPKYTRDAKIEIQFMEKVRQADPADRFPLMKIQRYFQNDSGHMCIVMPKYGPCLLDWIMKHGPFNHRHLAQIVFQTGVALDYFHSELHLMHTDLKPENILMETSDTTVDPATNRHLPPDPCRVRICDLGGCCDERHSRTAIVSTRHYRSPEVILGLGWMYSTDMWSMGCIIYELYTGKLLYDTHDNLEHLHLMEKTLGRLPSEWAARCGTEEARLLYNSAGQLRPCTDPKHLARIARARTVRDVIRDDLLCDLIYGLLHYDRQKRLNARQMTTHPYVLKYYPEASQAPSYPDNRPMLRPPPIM
Assay: biochemical
Assay type: binding
Conditions: DSF, 10 µM compound, 2 µM LmxCLK1, Run 1
Write down the numeric answer in °C and omit the unit.

Sample records with ΔTm Run 1:
CCN1/C(=C/C(C)=O)Sc2ccc(OC)cc21 [TG003] ... 1.4
Cc1ccc(C(=O)Nc2ccc(CN3CCN(C)CC3)c(C(F)(F)F)c2)cc1C#Cc1cnc2cccnn12 [Ponatinib (AP24534)] ... 0.0
CCN1CCN(Cc2ccc(-c3cc4c(N[C@H](C)c5ccccc5)ncnc4[nH]3)cc2)CC1 [AEE788 (NVP-AEE788)] ... 0.2
Cc1c(NC(=O)OC[C@@H]2COCCN2)cn2ncnc(Nc3ccc4c(cnn4Cc4cccc(F)c4)c3)c12 [AC480 (BMS-599626)] ... 0.4
CN(c1ncccc1CNc1nc(Nc2ccc3c(c2)CC(=O)N3)ncc1C(F)(F)F)S(C)(=O)=O [PF-562271] ... 0.3
COc1cc(Nc2ncc(F)c(Nc3ccc4c(n3)N(COP(=O)(O)O)C(=O)C(C)(C)O4)n2)cc(OC)c1OC [Fostamatinib (R788)] ... 0.2

Field: next compound
Query block: Would you mind telling me what ΔTm Run 1 value was observed for C#Cc1cccc(Nc2ncnc3cc(OCCOC)c(OCCOC)cc23)c1.Cl [Erlotinib HCl (OSI-744)] ?
Result block: 0.1
